Each recorded value in this set is attributed to paper PMC4436074.

# System: Rgg2/3-regulated promoter Pshp2-luxAB (BNL148)
# protocol-notes: Pshp2-luxAB luciferase reporter assay, strain BNL148, sSHP2-C8 induced
# Type: cell-based, S. pyogenes
# reported-conditions: 10 µM compound with 10 nM SHP2-C8, BNL148
metric-name: inhibition of SHP-induced light production (transcription)

1) CCCc1nc(C(C)(C)O)c(C(=O)O)n1Cc1ccc(-c2ccccc2-c2nnn[nH]2)cc1 [Olmesartan] : less than 50%
2) CCCc1nc2c(C)cc(-c3nc4ccccc4n3C)cc2n1Cc1ccc(-c2ccccc2C(=O)O)cc1 [Telmisartan] : less than 50%
3) CCC(C)(C)C(=O)O[C@H]1C[C@@H](C)C=C2C=C[C@H](C)[C@H](CC[C@@H]3C[C@@H](O)CC(=O)O3)[C@H]21 [Simvastatin] : less than 50%

* * *

# system-name: ComR (Streptococcus mutans serotype c)
# Sequence (Q8DWI6 1-304): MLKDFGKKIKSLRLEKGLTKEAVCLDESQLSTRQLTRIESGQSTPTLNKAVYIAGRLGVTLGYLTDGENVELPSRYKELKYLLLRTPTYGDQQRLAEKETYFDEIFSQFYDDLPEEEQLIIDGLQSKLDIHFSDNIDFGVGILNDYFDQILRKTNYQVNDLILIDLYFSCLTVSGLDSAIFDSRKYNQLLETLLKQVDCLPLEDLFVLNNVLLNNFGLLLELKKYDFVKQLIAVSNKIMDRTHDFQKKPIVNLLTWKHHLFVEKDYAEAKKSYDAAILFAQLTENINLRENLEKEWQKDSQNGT
# Type: binding, S. mutans
# reported-conditions: read-out: ComR Avg % inhibition
Where a name gives a salt, the structure may show the parent alone.
metric-name: inhibition (%)
Response body: numeric value in %, unit text excluded.

Asked: Any idea what its inhibition is? The molecule is `CCCc1nc(C(C)(C)O)c(C(=O)O)n1Cc1ccc(-c2ccccc2-c2nnn[nH]2)cc1`
Given back: 1

Asked: And `CCC(C)(C)C(=O)O[C@H]1C[C@@H](C)C=C2C=C[C@H](C)[C@H](CC[C@@H]3C[C@@H](O)CC(=O)O3)[C@H]21` ?
Given back: 10

Asked: And CC(C)(C)NC(=O)[C@@H]1C[C@@H]2CCCC[C@@H]2CN1C[C@@H](O)[C@H](Cc1ccccc1)NC(=O)[C@H](CC(N)=O)NC(=O)c1ccc2ccccc2n1 [Saquinavir mesylate] ?
Given back: 13

Asked: And `CCCc1nc2c(C)cc(-c3nc4ccccc4n3C)cc2n1Cc1ccc(-c2ccccc2C(=O)O)cc1` ?
Given back: 3
